# tested-system: Grb2 SH2 (UniProt P62993)
# Sequence (P62993 whole entry, looked up): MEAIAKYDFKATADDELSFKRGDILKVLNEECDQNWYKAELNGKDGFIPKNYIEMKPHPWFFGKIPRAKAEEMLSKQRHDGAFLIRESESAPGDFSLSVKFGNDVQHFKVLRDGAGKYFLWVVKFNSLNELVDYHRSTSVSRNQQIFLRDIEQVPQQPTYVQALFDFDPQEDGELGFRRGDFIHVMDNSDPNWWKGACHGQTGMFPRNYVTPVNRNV
# test-method-notes: SH2 binding enrichment of the phosphorylated peptide, bacterial display (enrichment ratio); higher = better substrate or ligand; peptides without Tyr show the background
Recorded measurements of SH2 binding enrichment, one per entry
Reply briefly: the number, and no unit.

{"entry-sequence": "PLQKTYNFNML [SLC4A1_Y553_V557M_YF]", "experimental-result": 0.713}
{"entry-sequence": "RSLLQYGGSAN [ANK1_Y624]", "experimental-result": 0.749}
{"entry-sequence": "HCFNSYTFPRL [PAK7_Y316_S312C_YF]", "experimental-result": 0.734}

Query: // returns reported SH2 binding enrichment for input TENAGYYFQVS
Result: 0.783

Query: Repeat with SVVVPYEPPKV [TP53_Y220_E224K]
Result: 0.806

Query: Repeat with SLFNGYVFSGM [NEIL3_Y71_V76M_YF]
Result: 0.938

Query: Repeat with KRYRIYHLATS [BRCA2_Y3009]
Result: 0.791

###

# Test system: AncSZ
# test-method-notes: phosphorylation enrichment, bacterial display (enrichment ratio); higher = better substrate or ligand; peptides without Tyr show the background
measured-metric: phosphorylation enrichment
Reply briefly: the number, and no unit.

{"entry-sequence": "KLYRVYCDMNT [FGB_Y269_P265L]", "experimental-result": 0.978}
{"entry-sequence": "LHAAAYRNALA [UQCRC2_Y182]", "experimental-result": 0.686}
{"entry-sequence": "PESIMYRKFTT [NTRK3_Y744]", "experimental-result": 3.03}

Query: // returns reported phosphorylation enrichment for input LPEENYQVLCF [ARHGAP1_Y365_R369C]
Result: 3.61

Query: Repeat with RLLRGHDQSAY [HLA-C_Y137_Y137H]
Result: 0.632

Query: Repeat with DAVAVCHGKIS [SH2D1A_Y7_Y7C]
Result: 0.658

Query: Repeat with DRLASYQDKVR [KRT12_Y139_L140Q]
Result: 0.532

Query: Repeat with TGFRPYVCPFD [YY1_Y383_D380Y_YF]
Result: 1.54

Query: Repeat with ASMAKYYASEI [ACADSB_Y372]
Result: 0.701

Query: Repeat with RSACTYLAPHL [PLK3_Y615_S618P]
Result: 2.67

###

# System: c-Src
# test-method-notes: phosphorylation enrichment, bacterial display (enrichment ratio); higher = better substrate or ligand; peptides without Tyr show the background
Classify as follows. Reported phosphorylation enrichment greater than or equal to 0.8: MET. Reported phosphorylation enrichment below: NOT MET.

The following sequences have reported results that may help.
{"entry-sequence": "EGDGVYTLNNK [HP_Y125_E130K]", "category": "MET"}
{"entry-sequence": "AVRFIYTIDGS [DCX_Y105_G100A_YF]", "category": "MET"}
{"entry-sequence": "GLAKEYIDPET [CSNK1G2_Y195]", "category": "NOT MET"}
{"entry-sequence": "GGYTWYCDGKK [PROS1_Y266_C265W]", "category": "NOT MET"}

Query: Decide: is the reported value of phosphorylation enrichment for LFSNAYLNDLA [ALDH1A1_Y119_YF] equal to or greater than 0.8?
Result: MET

Query: Repeat with FTGVEYSSCDT [EPHA3_Y937]
Result: NOT MET
